Target Desc: antithrombin III (plasma purified human AT-III), in complex with unfractionated heparin
Task for the reader: assign each of the following proteins its reported K0.5-mut/K0.5-wt.
Write the number on its own, no unit after it.

QUERY: Please give measured K0.5-mut/K0.5-wt of the following entry: FIXa-D203N/F205T/K228N (protein) chain 1: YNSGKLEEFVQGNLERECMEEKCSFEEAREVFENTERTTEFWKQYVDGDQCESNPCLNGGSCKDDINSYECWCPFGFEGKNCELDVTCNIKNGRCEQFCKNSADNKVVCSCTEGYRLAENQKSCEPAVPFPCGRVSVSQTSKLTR chain 2: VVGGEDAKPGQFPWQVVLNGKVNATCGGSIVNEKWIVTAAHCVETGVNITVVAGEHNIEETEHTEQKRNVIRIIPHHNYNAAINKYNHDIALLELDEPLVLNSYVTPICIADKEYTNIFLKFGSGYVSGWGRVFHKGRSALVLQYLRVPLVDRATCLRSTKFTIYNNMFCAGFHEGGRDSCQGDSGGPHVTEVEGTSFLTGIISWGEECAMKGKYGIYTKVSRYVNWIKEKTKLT
RESULT: 42.5

QUERY: Look up and state reported K0.5-mut/K0.5-wt for FIXa-K228N/R338E/R403E (protein) chain 1: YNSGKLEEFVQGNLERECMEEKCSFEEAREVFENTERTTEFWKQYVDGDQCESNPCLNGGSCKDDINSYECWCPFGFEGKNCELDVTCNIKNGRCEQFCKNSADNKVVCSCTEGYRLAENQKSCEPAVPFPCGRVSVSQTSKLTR chain 2: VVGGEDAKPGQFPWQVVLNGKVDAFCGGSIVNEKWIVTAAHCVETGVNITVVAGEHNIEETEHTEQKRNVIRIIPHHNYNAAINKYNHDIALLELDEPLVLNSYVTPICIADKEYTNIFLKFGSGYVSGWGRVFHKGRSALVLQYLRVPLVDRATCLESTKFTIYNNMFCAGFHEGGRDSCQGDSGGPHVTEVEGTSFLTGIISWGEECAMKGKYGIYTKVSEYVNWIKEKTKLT
RESULT: 86.8

QUERY: State, in one line, measured K0.5-mut/K0.5-wt of FIXa-D203N/F205T/R318Y (protein) chain 1: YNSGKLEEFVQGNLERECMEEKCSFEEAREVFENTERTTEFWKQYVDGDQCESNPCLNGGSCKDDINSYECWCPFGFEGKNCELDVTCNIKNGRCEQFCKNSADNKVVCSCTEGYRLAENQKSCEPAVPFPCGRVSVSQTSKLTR chain 2: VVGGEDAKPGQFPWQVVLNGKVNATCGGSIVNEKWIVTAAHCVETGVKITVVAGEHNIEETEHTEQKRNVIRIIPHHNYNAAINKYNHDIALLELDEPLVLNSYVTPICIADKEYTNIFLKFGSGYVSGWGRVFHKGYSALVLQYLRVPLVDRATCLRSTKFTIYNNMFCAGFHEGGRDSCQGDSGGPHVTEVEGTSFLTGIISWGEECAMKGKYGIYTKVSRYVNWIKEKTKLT
RESULT: 374

QUERY: Please report K0.5-mut/K0.5-wt for the following protein: FIXa-K228N/R318Y/E410N (protein) chain 1: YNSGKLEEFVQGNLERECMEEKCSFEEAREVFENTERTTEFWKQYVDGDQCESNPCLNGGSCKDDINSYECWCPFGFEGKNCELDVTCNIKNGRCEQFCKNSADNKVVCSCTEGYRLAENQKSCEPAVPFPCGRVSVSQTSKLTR chain 2: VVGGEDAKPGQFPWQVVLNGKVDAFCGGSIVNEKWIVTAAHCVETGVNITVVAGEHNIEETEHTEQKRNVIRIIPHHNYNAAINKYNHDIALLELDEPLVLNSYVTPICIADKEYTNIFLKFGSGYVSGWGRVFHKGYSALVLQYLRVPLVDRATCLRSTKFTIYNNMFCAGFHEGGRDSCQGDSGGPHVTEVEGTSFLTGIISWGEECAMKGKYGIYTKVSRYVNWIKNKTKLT
RESULT: 24.6
